Test system: LOX IMVI melanoma
Assay: NCI-60 one-dose screen, 48 h
Conditions: 10 µM unless noted
This is part of a sample that, as a whole, favours compounds with a hit. Of some 83,000 tested, about 20% had one in any assay. Calls of active or inactive are those of the source. How the source made its calls: active means growth percent below 10; inactive means the rest.
// one of 1 for active, -1 for inactive, no free text

Recorded test outcome, item COc1ccc(S(=O)(=O)NCCNc2nccc(-c3c(-c4cccc([N+](=O)[O-])c4)nc4sccn34)n2)cc1
-1

Recorded test outcome, item CCOC(=O)CC(=O)c1c(C)cc(C)cc1C
-1

Recorded test outcome, item O=C1C2CC=CCC2C(=O)N1CNc1ccc(Cl)cc1 (stereo unspecified)
-1

Recorded test outcome, item NC(=S)N/N=C/c1ccc(OCc2ccccc2)cc1
-1

Recorded test outcome, item O=S(=O)(NCCCNc1cc(-c2cn(-c3ccccc3)nc2-c2cccc(O)c2)ccn1)c1ccccc1
-1

Recorded test outcome, item COc1cc(OC)c(/C=C/S(=O)(=O)Cc2ccc(OC)c(N)n2)c(OC)c1
1

Recorded test outcome, item CC1=C(NCCN2CCCC2)C(=O)c2c(OCc3cccc(Cl)c3)cccc2C1=O
-1

Recorded test outcome, item Nc1cccc(-c2nc3sccn3c2-c2ccnc(NCCCNS(=O)(=O)c3ccc(C(F)(F)F)cc3)n2)c1
1

Recorded test outcome, item CC1=NNC(=O)C1C (stereo unspecified)
-1

Recorded test outcome, item Nc1nc(-c2ccc(F)cc2)cc(-c2cnn(-c3ccccc3)n2)n1
-1

Recorded test outcome, item COc1cccc(/C=C2/C(=O)N(Cc3ccco3)SC2=S)c1OC
-1

All values here come from PubChem BioAssay (NCI).
